So I've got a bunch of compounds here, and I need their pIC50 values.
# system: Human fibrinogen receptor (αIIbβ3) (Homo sapiens, UniProt P05106+P08514)
# Construct: Human fibrinogen receptor (αIIbβ3) was purified from outdated platelets
# test: Purified IIb/IIIa receptor assay (solid phase receptor assay, competition with biotinylated vitronectin)
# condition_context: purified receptor from outdated platelets; 1 nM biotinylated vitronectin; highest concentration tested 1.0 x 10^-4 M
Where a name gives a salt, the structure may show the parent alone.
Give only the number. pIC50 is defined as minus log10 of concentration in molar units.

Task: Supply pIC50 value. Item: CCOC(=O)CCc1ccc(N(C)C(=O)c2cccc(NC(=N)N)c2)cc1 [Example 60, trifluoroacetate salt]
Output: 5.42

Task: Give a short answer stating reported pIC50 for O=C(Nc1ccc(C[C@H](NS(=O)(=O)c2ccccc2)C(=O)O)cc1)c1cccc(NC2=NCCCN2)c1 [Example 111, trifluoroacetate salt] .
Output: 8.22

Task: Give pIC50 for the following compound: `CCOC(=O)CCc1ccc(CNC(=O)c2cccc(C#N)c2)cc1`
Output: 4.16

Task: Look up pIC50 of CC(C)(C)OC(=O)CCc1ccc(CCNC(=O)c2cccc(NC(=N)N)c2)cc1 [Example 58, monohydrate trifluoroacetate salt] and report it.
Output: 4.24

====

# system: Human vitronectin receptor (αvβ3) (Homo sapiens, UniProt P05106+P06756)
# Construct: Human vitronectin receptor (αvβ3) was purified from human placenta; from tissue; host or cells: human placenta
# test: Vitronectin adhesion assay (solid phase receptor assay, competition with biotinylated vitronectin)
# Type: binding
# condition_context: purified receptor from human placenta; 1 nM biotinylated vitronectin; highest concentration tested 1.0 x 10^-4 M; read-out: AvB3 IC50
Counter-ions that a name gives are not always drawn.
measurement_kind: log10 of IC50 (log10 of the value in nM)
Please be aware that the numbers have been log10-transformed from IC50 in nM.

Task: For the compound CCOC(=O)C(Cc1ccc(NC(=O)c2cccc(NC(=N)N)c2)cc1)NC(=O)OC(C)(C)C (stereo not shown) [Example 44, trifluoroacetate salt] , give its measured log10 of IC50 value.
Output: 2.08

Task: Specify reported log10 of IC50 for the compound shown: CC(C)CC(=O)NC(Cc1ccc(NC(=O)c2cc(NC(=N)N)cc(C(F)(F)F)c2)cc1)C(=O)O (stereo not shown) [Example 108, trifluoroacetate salt]
Output: 0.60

Task: Report log10 of IC50, nothing else, for this compound: O=C(Nc1ccc(C[C@H](NS(=O)(=O)c2ccccc2)C(=O)O)cc1)c1cccc(NC2=NCCCN2)c1 [Example 111, trifluoroacetate salt]
Output: -1.00

Task: Specify measured log10 of IC50 for COc1cc(NC(=O)c2cccc(NC3=NCCCN3)c2)ccc1C[C@H](NC(=O)OC(C)C)C(=O)O [Example 114, trifluoroacetate salt] .
Output: -0.70

Task: Give the reported log10 of IC50 for this compound. O=C(Nc1ccc(CC(NS(=O)(=O)c2ccccc2)C(=O)O)cc1)c1cccc(NC2=NCCN2)c1 (stereo not shown) [Example 112, trifluoroacetate salt]
Output: -0.52

Task: Give the reported log10 of IC50 for this compound. CC(C)OC(=O)NC(Cc1ccc(NC(=O)c2cccc(N=C(N)N)c2)cc1)C(=O)O (stereo not shown) [Example 50, trifluoroacetate salt]
Output: -0.10

Task: Note log10 of IC50 for the compound shown: CCCCS(=O)(=O)N[C@@H](Cc1ccc(NC(=O)c2cccc(NC3=NCCCCC3)c2)cc1)C(=O)O [Example 10, trifluoroacetate salt]
Output: 0.07

Task: Return log10 of IC50 (reported value) for this compound: COc1cc(NC(=O)c2cccc(NC3=NCCCN3)c2)ccc1OCC(=O)O [Example 119, trifluoroacetate salt]
Output: -0.40

Task: Find the measured log10 of IC50 of CC(C)OC(=O)NC(Cc1ccc(NC(=O)c2cccc(NC(N)=NC(N)=O)c2)cc1)C(=O)O (stereo not shown) [Example 105, bis(trifluoroacetate) salt] and report it.
Output: 0.30

Task: Fill in log10 of IC50 for record CCOC(=O)NC(Cc1ccc(NC(=O)c2cccc(NC(=N)N)c2)cc1)C(=O)O (stereo not shown) [Example 49, trifluoroacetate salt]
Output: 0.04

Task: Please give the documented log10 of IC50 of N=C(N)Nc1cccc(NC(=O)Cc2ccc(OCC(=O)O)cc2)c1 [Example 84, trifluoroacetate salt]
Output: 4.21

Task: Fill in reported log10 of IC50 for this entry: N=C(N)Nc1cccc(C(=O)Nc2ccc(OC(C(=O)O)c3ccccc3)cc2)c1 (stereo not shown) [Example 86, trifluoroacetate salt]
Output: 2.49
